Hi there, I'd appreciate the recorded Kd for every entry that follows.
target: tetanus neurotoxin (TeNT), authentic tetanus holotoxin (Clostridium tetani, UniProt P04958 2-1315); assay: BLI (Octet Red96): biotinylated TeNT on SA sensor, SDA as analyte
Sequence (P04958 2-457 limits assumed, chain 1 of 2): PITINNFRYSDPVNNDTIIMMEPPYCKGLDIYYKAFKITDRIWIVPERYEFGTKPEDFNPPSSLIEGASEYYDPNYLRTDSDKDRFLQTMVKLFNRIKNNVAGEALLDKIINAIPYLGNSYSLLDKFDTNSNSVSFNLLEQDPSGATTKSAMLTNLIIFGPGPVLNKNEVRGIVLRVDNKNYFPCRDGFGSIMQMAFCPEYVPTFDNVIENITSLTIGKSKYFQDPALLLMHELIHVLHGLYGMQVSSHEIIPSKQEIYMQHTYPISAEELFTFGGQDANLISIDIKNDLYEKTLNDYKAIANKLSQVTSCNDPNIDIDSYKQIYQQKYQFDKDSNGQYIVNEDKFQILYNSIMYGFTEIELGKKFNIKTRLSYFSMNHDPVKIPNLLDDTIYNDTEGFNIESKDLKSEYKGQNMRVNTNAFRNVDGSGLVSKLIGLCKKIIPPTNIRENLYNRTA
Sequence (P04958 458-1315 limits assumed, chain 2 of 2): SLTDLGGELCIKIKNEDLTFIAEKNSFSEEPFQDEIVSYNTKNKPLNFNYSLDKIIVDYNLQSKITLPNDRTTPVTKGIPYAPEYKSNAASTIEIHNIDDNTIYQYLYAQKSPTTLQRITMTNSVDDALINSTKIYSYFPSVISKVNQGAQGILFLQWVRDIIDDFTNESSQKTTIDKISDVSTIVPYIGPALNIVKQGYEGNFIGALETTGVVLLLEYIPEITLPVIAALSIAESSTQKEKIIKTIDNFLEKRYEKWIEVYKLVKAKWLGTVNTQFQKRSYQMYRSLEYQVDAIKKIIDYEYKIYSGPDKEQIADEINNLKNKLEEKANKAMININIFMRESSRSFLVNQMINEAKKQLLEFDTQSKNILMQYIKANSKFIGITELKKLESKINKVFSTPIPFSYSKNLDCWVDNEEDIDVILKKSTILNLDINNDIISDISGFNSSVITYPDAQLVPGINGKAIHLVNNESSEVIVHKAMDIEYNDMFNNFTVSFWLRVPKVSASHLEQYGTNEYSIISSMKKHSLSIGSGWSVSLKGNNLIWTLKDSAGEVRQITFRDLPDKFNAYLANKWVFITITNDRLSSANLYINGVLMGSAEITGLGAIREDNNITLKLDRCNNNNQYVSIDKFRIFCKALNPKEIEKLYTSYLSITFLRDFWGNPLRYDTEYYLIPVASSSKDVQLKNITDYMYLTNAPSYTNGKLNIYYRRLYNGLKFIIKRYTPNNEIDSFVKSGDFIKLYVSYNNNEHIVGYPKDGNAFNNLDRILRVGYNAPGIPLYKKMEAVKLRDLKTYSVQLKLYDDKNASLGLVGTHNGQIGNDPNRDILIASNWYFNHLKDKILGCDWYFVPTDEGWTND
Could you give the number and then its unit, please?

For each of the binders below, state Kd.
1. SVT06-GS2-SVA12M2-H6 (bispecific antibody) QVQLQESGGGSVQAGGSLRLSCTASELSYDDYTIAWFRRAAGEGRVEDGEGVASITKSYDRAYDNKINYGHSVKGRFTISRDNAKNTVYLQMTDLLPSDTAVYYCALDITPPGGVGASLTEGFLFDYWGQGTQVTVSSGGGGSGGGSEVQLVESGGGLVQAGGSLRLSCAASGRTFSYYPMAWFRQAPGQEREFVAAIIGADTTYYADSLKGRFTISRDNAKNMVYLQMNSLKPEDTAVYYCAARNTYWSDVYYREGQYTNWGQGTQVTVSSHHHHHH
2. SVT15-3FW4M-GS2-SVG13M4-H6 (bispecific antibody) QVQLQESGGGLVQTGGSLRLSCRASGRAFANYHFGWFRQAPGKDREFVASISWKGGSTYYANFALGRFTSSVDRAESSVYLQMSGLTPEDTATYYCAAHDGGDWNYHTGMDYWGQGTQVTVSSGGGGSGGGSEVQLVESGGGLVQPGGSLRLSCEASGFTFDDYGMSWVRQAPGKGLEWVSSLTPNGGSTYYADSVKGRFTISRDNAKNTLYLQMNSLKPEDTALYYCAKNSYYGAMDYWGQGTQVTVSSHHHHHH
3. SVT02-GS2-SVG13M4-H6 (bispecific antibody) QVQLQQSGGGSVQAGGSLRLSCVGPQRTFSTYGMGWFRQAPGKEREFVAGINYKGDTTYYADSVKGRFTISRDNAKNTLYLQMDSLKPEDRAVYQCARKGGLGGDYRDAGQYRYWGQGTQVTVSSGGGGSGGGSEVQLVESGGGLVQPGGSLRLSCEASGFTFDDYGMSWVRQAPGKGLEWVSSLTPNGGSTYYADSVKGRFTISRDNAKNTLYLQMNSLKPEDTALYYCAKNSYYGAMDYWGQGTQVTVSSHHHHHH

0.151 nM
0.0158 nM
0.0987 nM

For SVT06-GS2-SVG13M4-H6 (bispecific antibody) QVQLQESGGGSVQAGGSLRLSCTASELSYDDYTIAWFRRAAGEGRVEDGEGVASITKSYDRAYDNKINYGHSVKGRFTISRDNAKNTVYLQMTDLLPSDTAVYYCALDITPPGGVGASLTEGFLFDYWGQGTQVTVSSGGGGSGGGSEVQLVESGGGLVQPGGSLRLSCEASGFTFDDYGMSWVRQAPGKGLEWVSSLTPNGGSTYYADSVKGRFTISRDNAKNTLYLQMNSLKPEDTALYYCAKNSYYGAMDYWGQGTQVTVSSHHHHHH , write its Kd.
0.123 nM

Ref: patent US20240376185A1
